Measured values drawn from patent US20260274955A1 for this set.

target: T1, Anti-CD28 Fab (SEQ ID NOs: 202, 203); assay: phage ELISA on captured Fab, wells pre-incubated with CD28 antigen (competitor: CD28);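 note: bound clonal phage detected with an HRP-linked anti-M13 antibody, compared against wells that received blocking buffer alone without CD28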
T1 construct: biotinylated and captured on neutravidin coated plates in the phage ELISA
T1 sequence (VH, as listed by the source, chain 1 of 2): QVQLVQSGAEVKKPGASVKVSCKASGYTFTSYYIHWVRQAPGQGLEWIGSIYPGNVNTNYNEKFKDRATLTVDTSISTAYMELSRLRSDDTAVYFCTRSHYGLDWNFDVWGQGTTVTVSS
T1 sequence (VL, as listed by the source, chain 2 of 2): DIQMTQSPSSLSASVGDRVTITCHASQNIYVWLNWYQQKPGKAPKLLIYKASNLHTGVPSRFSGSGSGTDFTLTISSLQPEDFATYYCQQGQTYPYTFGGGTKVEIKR
measurement type: Anti-CD28 Fab signal in the presence of CD28

Known Anti-CD28 Fab signal in the presence of CD28 results, listed for orientation:
Kindly indicate its recorded Anti-CD28 Fab signal in the presence of CD28. Item: YCMGHLPQYMQKCL [Phage-166] 0.11

Fill in reported Anti-CD28 Fab signal in the presence of CD28 for this entry: YCDGHSQEYIAKCL [Phage-265] 0.07

Return the recorded Anti-CD28 Fab signal in the presence of CD28 value; entry: YCEGHAPEYMMKCI [Phage-224] 0.06

---
Give recorded Anti-CD28 Fab signal in the presence of CD28. YCEGHLSQYMQKCL [Phage-259] 0.09
